Where these numbers come from: paper PMC11822723

experiment-summary: Aqueous solubility measurements (stepwise solvent addition, stereo microscope)
Format: physicochemical
assay-setup: 5% glucose solution, saline or isotonic, thermodynamic from solid, 5% glucose; read-out: solubility, conc.
Excerpt: Thus, the impact of the pH value on the solubilities of the Ox-Ibu-PIP-X-Mal complexes was investigated. Commercially available 0.9% NaCl has a pH of roughly 5, but when acidified to pH 3, the solubilities of both Ox-Ibu-PIP-X-Mal complexes increased by a factor of 1.5. […] Expectedly, using phosphate buffer or phosphate-buffered saline (PBS) at pH 7.4 further decreased the solubility. 5% glucose and 0.9% NaCl solutions were purchased from B. Braun. […]
property: solubility (mM)
Respond numerically; units are mM and should not be typed.

These solved cases illustrate the format of a correct answer.
{"columns": ["compound", "scale-unit", "test-value"],
 "data": [
  ["CC(C)[C@H](NC(=O)CCN1CCN(CCOCCN2C(=O)C=CC2=O)CC1)C(=O)N[C@@H](CCCNC(N)=O)C(=O)Nc1ccc(CO)cc1", "mM", 700],
  ["CC(C)[C@H](NC(=S)NCCN1CCN(CCOCCN2C(=O)C=CC2=O)CC1)C(=O)N[C@@H](CCCNC(N)=O)C(=O)Nc1ccc(CO)cc1", "mM", 600],
  ["CC(C)C(NC(=O)CCOCCOCCOCCOCCN1C(=O)C=CC1=O)C(=O)NC(CCCNC(N)=O)C(=O)Nc1ccc(CO)cc1 (stereo not shown) [Mal-PEG4-ValCitPAB-OH, reference compound]", "mM", 20]
]}

// switching to the query compound
Task: Dear colleague, I am looking for the recorded solubility of the following compound: CC(C)[C@H](NC(=O)CCC(=O)NCCN1CCN(CCOCCN2C(=O)C=CC2=O)CC1)C(=O)N[C@@H](CCCNC(N)=O)C(=O)Nc1ccc(CO)cc1
Result: 600
